Assayed system: Melanocortin receptor 5 (Homo sapiens, UniProt P33032)
Sequence (P33032 whole entry): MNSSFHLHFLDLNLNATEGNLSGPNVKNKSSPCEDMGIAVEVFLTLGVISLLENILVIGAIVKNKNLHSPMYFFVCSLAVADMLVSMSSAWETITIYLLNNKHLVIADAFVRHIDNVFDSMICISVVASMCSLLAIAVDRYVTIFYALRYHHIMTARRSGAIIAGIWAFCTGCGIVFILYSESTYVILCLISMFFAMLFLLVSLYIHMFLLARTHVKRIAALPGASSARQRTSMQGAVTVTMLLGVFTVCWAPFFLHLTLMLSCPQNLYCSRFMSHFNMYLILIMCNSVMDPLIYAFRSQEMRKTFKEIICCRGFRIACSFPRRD
Experiment summary: Intracellular cAMP accumulation in human Melanocortin 5 receptor functional assay.
Recorded metric: EC50

Query: // query EC50 value for entry `CCCC[C@H](NC(=O)[C@@H](NC(=O)[C@@H](N)Cc1ccc(O)cc1)C(C)C)C(=O)NCC(=O)N[C@@H](Cc1c[nH]cn1)C(=O)N[C@H](Cc1ccc2ccccc2c1)C(=O)N[C@@H](CCCN=C(N)N)C(=O)N[C@H](Cc1ccc2ccccc2c1)C(=O)N[C@@H](CC(=O)O)C(=O)N[C@@H](CCCN=C(N)N)C(=O)N[C@@H](Cc1ccccc1)C(=O)NCC(N)=O`
Reply: > 10 µM
